The measurements presented in this section are drawn from paper PMC6522510.

Examples of compounds with documented ML-2 %inh follow.
system: ML-2; set-up: species or system AML cell lines (8); Primary HTS, single concentration about 10 uM, Cell Titer Glo viability; log10 luminescence, per cent inhibition relative to cycloheximide control; details: 72 h, relative to cycloheximide control, log10 luminescence; inhibitor
observed_property: ML-2 %inh

compound	result
COc1cc(Nc2nccc(Nc3ccc4c(C)n[nH]c4c3)n2)cc(OC)c1OC	29.66%
FC(F)(F)c1cccc(-c2nn3ncccc3c2-c2ccnc(Nc3ccc4c(c3)OCCO4)n2)c1	2.472%
COc1cc[nH]c1/C=C1\C(=O)Nc2ccccc21	2.572%
CC(=O)Nc1ccc2c(C3=C(c4cn(C)c5ccccc45)C(=O)NC3=O)cn(C)c2c1	39.48%
CC1=C(C(=O)Nc2ccc3[nH]nc(C)c3c2)C(c2ccc(C(F)(F)F)cc2)CC(=O)N1 (stereo not shown)	13.81%
Cn1cc(C2=C(c3ccsc3)C(=O)NC2=O)c2ccccc21	4.351%
CCn1c(-c2nonc2N)nc2c(C#CC(C)(C)O)nc(O[C@@H](CN)c3ccccc3)cc21	56.05%
Cn1cc(C2=C(c3cn(CCCN=C(N)N)c4ccccc34)C(=O)NC2=O)c2ccccc21	1.035%
Cc1[nH]c(/C=C2\C(=O)Nc3ccccc32)c(C)c1CCC(=O)O	2.987%
Cn1cc(C2=C(c3cccc(Br)c3)C(=O)NC2=O)c2ccccc21	-0.4526%
COc1cc2ncnc(Nc3ccc(C)c(O)c3)c2cc1OC	-3.545%
Cn1cc(C2=C(c3cccc(NCC(O)CO)c3)C(=O)NC2=O)c2cc(Cl)ccc21 (stereo not shown)	10.75%
COc1ccc2[nH]c3c4[nH]c5ccc(OC)cc5c4c4c(c3c2c1)C(=O)NC4=O [SJ000573218-1, 3744W 92C*D]	9.324%
COc1ccc(C2=CC3=C(Br)C(=O)C(C)(O)C(=O)C3=CO2)cc1 (stereo not shown)	-0.5513%
Fc1ccc(-c2ncn(C3CCNCC3)c2-c2ccnc(Oc3ccc4c(c3)OCO4)n2)cc1	3.564%
O=c1c(Oc2ccc(F)cc2F)cc2cnc(NC3CCOCC3)nc2n1C1CC1	0.3273%

====

tested on: M07e; assay: cells; set-up: species or system AML cell lines (8); Secondary HTS, 10-point dose-response in triplicate, Cell Titer Glo viability, four-parameter fit EC50; conditions: M-07e, 72 h, read-out: M07e
pEC50: −log10 of the molar value.
observed_property: pEC50

compound	target_system	result
Cc1cccc(-c2nn3c(c2-c2ccnc4ccc(C(N)=O)cc24)CCC3)n1 [LY2157299]	M07e	< 5.00
O=c1ncccn1[C@@H]1O[C@H](CO)[C@@H](O)[C@H]1O [ZEBULARINE]	M07e	< 5.00
CC(/C=C/C(=O)NO)=C\[C@@H](C)C(=O)c1ccc(N(C)C)cc1 [SJ000534770, TRICHOSTATIN A]	M07e	7.05
Cn1cccc1/C=C1\C(=O)NC(=O)c2ccccc21 [SJ000784271, BYK 204165]	M07e	6.20
NC(=O)Nc1cc(-c2cccc(F)c2)sc1C(=O)N[C@H]1CCCNC1 [AZD7762]	M07e	< 5.00
CO[C@@H](C(=O)N1Cc2n[nH]c(NC(=O)c3ccc(N4CCN(C)CC4)cc3)c2C1)c1ccccc1 [DANUSERTIB]	M07e	< 5.00
CC[C@H](C)C(=O)O[C@H]1C[C@@H](C)C=C2C=C[C@H](C)[C@H](CC[C@@H]3C[C@@H](O)CC(=O)O3)[C@H]21 [LOVASTATIN]	M07e	< 5.00
O=C(CCN1CCN(C(=O)OCc2cc(Cl)cc(Cl)c2)CC1)c1ccc2[nH]c(=O)oc2c1 [SJ000833851, PF-8380]	M07e	< 5.00

====

Examples of compounds with documented CMK %inh follow.
system: CMK; design: species or system AML cell lines (8); Primary HTS, single concentration about 10 uM, Cell Titer Glo viability; log10 luminescence, per cent inhibition relative to cycloheximide control; conditions: 72 h, relative to cycloheximide control, log10 luminescence; inhibitor

compound	CMK %inh, %
Cc1cc(NS(=O)(=O)c2ccc(N)cc2)no1	-0.9998
N#Cc1cccc(C(=O)c2cnn(-c3ccc(F)cc3)c2N)c1	1.804
CC(=O)N[C@@H](Cc1ccc(OP(=O)(O)O)cc1)C(=O)N[C@H]1CCC(=O)N2CCC[C@@H](C(=O)NCc3ccc(O)cc3)N2C1=O	0.1299
COc1ccc(O)c(C(=O)c2ccc(C(=O)N[C@@H]3CCCNC[C@H]3NC(=O)c3ccncc3)cc2)c1F	12.77
COc1ccccc1-c1cc(/C=C2\C(=O)Nc3ncc(Br)cc32)cc(Br)c1O	2.536
CN1CCN(C(=O)c2ccc(NC(=O)Nc3ccc(N(C)c4ccnc(Nc5ccc(CS(C)(=O)=O)cc5)n4)cc3)cc2)CC1	6.346
O=C1NC(=NCc2ccccc2Br)S/C1=C\c1ccc2ncccc2c1	1.742
COC(=O)Nc1nc2cc(Oc3ccc(NC(=O)Nc4cccc(C(=O)O)c4)cc3)ccc2[nH]1	83.28
COc1cccc(-n2ncc3c(N/N=C/c4ccc(C)cc4)ncnc32)c1	-4.291
COc1ccc(-c2coc3ncnc(N)c23)cc1	0.752
N#Cc1ccc(C(=O)c2cnn(-c3ccc(F)cc3)c2N)cc1	-2.255
O=C1NC(=NCCc2cccc(F)c2)S/C1=C\c1ccc2ncccc2c1	94.55
Cc1nnc(-c2ccc(C)c(-c3ccc(C(=O)NCc4ccc(Cl)cc4)cc3)c2)o1	2.525
Cc1[nH]c(/C=C2\C(=O)Nc3ccccc32)c(C)c1CCC(=O)O	1.601
O=C1NC(=NCCc2cccc(Cl)c2)S/C1=C\c1ccc2ncccc2c1	32.59
COC(=O)Nc1nc2ccc(Oc3ccc(NC(=O)Nc4cccc(Cl)c4)cc3)cc2[nH]1	60.27
O=c1[nH]c2nc(NC3CCOCC3)ncc2cc1Oc1ccc(F)cc1F	-0.7252
N#Cc1c(NC(=O)c2ccc(F)cc2)sc2c1CCCC2	5.634
COC(=O)Nc1nc2cc(Oc3cccc(NC(=O)Nc4cc(C(F)(F)F)ccc4F)c3)ccc2[nH]1	4.931
CCn1c(-c2nonc2N)nc2c(C#CC(C)(C)O)nc(CN3CCCC3)cc21	2.979
CC1=C(C(=O)Nc2ccc3[nH]ncc3c2)C(c2ccc(F)cc2)N=C(c2ccc(C(F)(F)F)nc2)N1 (stereo not drawn)	6.755
CCn1c(-c2nonc2N)nc2c(C#CC(C)(C)O)nc(OC[C@@H](N)c3ccccc3)cc21	11.49
NC(=O)c1sc(-n2cnc3ccc(C(F)(F)F)cc32)cc1OCc1ccccc1Br	-1.461
O=C1NC(=NCc2ccccn2)S/C1=C\c1ccc2ncccc2c1	2.326
Cc1nnc(-c2cccc(-c3ccc(C(=O)NCC4CC4)cc3)c2)o1	3.578
COc1ccc(C2=CC3=C(Br)C(=O)C(C)(O)C(=O)C3=CO2)cc1 (stereo not drawn)	-1.841
C[C@@H]1C[C@H]2[C@@H]3C[C@H](F)C4=CC(=O)C=C[C@]4(C)[C@@]3(F)[C@@H](O)C[C@]2(C)[C@@]1(O)C(=O)CO	4.189
Oc1ccc(-c2c(-c3ccccc3)nn3c(C(F)(F)F)cc(C(F)(F)F)nc23)cc1	-2.936
Cn1cc(C2=C(c3cccc4ccccc34)C(=O)NC2=O)c2ccccc21	2.941
CCOC(=O)C1=C(N)Oc2ccc(Br)cc2[C@H]1[C@H](C#N)C(=O)OCC	4.094

====

assay: Pharmacokinetics of ruxolitinib, single oral dose, plasma LC-MS/MS; format: in vivo, mice; conditions: mouse, BoyJ, Male, 60 mg kg−1 oral gavage

molecule	half-life
N#CC[C@H](C1CCCC1)n1cc(-c2ncnc3[nH]ccc23)cn1	2.64 h

====

system: U937; parameters: species or system AML cell lines (8); Primary HTS, single concentration about 10 uM, Cell Titer Glo viability; log10 luminescence, per cent inhibition relative to cycloheximide control; conditions: 72 h, relative to cycloheximide control, log10 luminescence; inhibitor
Examples of compounds with documented U937 %inh follow.

compound	U937 %inh
CC1(C)CC(n2cnc(-c3ccc(F)cc3)c2-c2ccnc(N)n2)CC(C)(C)N1 [SJ000573190-1, JB19236-188C1]	-2.021%
CCn1c(-c2nonc2N)nc2c(C#CC(C)(C)O)nc(OC[C@@H](N)c3ccccc3)cc21 [SJ000573312-1, LS204454-145A1 | LS204454-146A1]	37.57%
NC(=O)c1sc(-n2cnc3ccccc32)cc1OCc1ccccc1Br [SJ000573032-1, U22538/78/1]	1.777%
COc1ccc2cc(-c3c(-c4ccncc4)nc(-c4ccc([S+](C)[O-])cc4C)n3C)ccc2c1 (stereo not shown) [SJ000573248-1, NJ44157-082A1]	1.089%
O=C(Nc1ccc(Oc2ccc3[nH]c(NC(=O)c4ccco4)nc3c2)cc1)Nc1cc(C(F)(F)F)ccc1F [SJ000573033-1, T261/93/1]	42.07%
CC(C)c1ccc(-c2cc(-c3c[nH]nc3-c3ccccn3)ccn2)cc1 [SJ000573275-1, FVLN/241/7/1]	0.007743%
O=C1NC(=NCc2ccccc2)S/C1=C\c1ccc2ncccc2c1 [SJ000581073-1]	3.079%
